Origin of the recorded values: PubChem BioAssay AID431

- Test Description: viability loss of HPDE-C7K cells – cell-based, fluorescence, HTS, primary screen (AID 431);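 also: 0% = DMSO solvent wells and 100% = doxorubicin-treated wells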
- Study Conditions: HPDE-C7K KRASV12 cells, Alamar Blue viability, 48 h; at 10 µM; hits give high values
Among all 63,000 compounds or so, about 1,100 (1.7%) were called active. This excerpt belongs to a sample that is enriched for actives. Results with a measured potency or affinity are listed apart.
Outcome Measure: cytotoxicity

{"columns": ["Given Smiles", "Recorded Result"],
 "data": [
  ["CCCCN(CCCC)S(=O)(=O)c1ccc(C(=O)Nc2nnc(COC)o2)cc1", "66.7% (active)"],
  ["O=C1c2ccccc2-c2ncnc3cccc1c23", "-4.9% (inactive)"],
  ["CCc1nnc(NC(=O)c2ccc(S(=O)(=O)N(CC)Cc3ccccc3)cc2)o1", "33% (inactive)"],
  ["Cc1nc2cc(CO)ccc2s1", "1.8% (inactive)"],
  ["CCCCN(C)S(=O)(=O)c1ccc(C(=O)Nc2nnc(CSC)o2)cc1", "-2% (inactive)"],
  ["CCc1nnc(NC(=O)c2ccc(S(=O)(=O)N(CCOC)CCOC)cc2)o1", "-0.3% (inactive)"],
  ["CCc1nnc(NC(=O)c2ccc(S(=O)(=O)N(CC(C)C)CC(C)C)cc2)o1", "47.6% (inactive)"],
  ["O=C1c2ccccc2-c2nccnc21", "-3.8% (inactive)"],
  ["Cc1ccc(C)n1-c1ncn[nH]1", "1.3% (inactive)"],
  ["CCCCOc1ccc(OCCCC)c2c1NC1(N2)C(=O)N(C(C)=O)c2ccccc21", "59.6% (active)"],
  ["CSCc1nnc(NC(=O)c2ccc(S(=O)(=O)N(CC(C)C)CC(C)C)cc2)o1", "57.2% (active)"]
]}

---

- Test Description: viability loss of HPDE-C7K cells – cell-based, fluorescence, HTS, primary screen (AID 431);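 also: 0% = DMSO solvent wells and 100% = doxorubicin-treated wells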
- Study Conditions: HPDE-C7K KRASV12 cells, Alamar Blue viability, 48 h; at 10 µM; hits give high values
About 1,100 (1.7%) of roughly 63,000 compounds were called active. The full list was thinned out, with actives kept by preference. Results with a measured potency or affinity are listed apart.
Quick rule for you: cytotoxicity under 20% gets Satisfied, anything else gets Not satisfied.

{"columns": ["Compound", "Label Class"],
 "data": [
  ["O=c1[nH]c2ccccc2n1CCCN1CCN(C(c2ccccc2)c2ccccc2)CC1", "Not satisfied"],
  ["O=C(NCc1ccccc1)c1cccc(NC(=O)c2ccco2)c1", "Not satisfied"],
  ["CCOC(=O)C1=C(C)NC(SCc2cc(=O)[nH][nH]2)=C(C#N)C1c1cccs1 (centres undefined)", "Not satisfied"],
  ["O=C(CSc1nnc(-c2ccccc2)o1)n1c2c(c3ccccc31)CCCC2", "Not satisfied"],
  ["O=C(c1ccccc1)c1ccncc1", "Not satisfied"],
  ["COC(=O)C1=C(C)N(C)C(C)=C(C(=O)OC)C1c1ccncc1", "Satisfied"],
  ["Cc1ccc2c(c1)c(C)c(C)n2CC(O)Cn1nc(C)cc1C (centres undefined)", "Satisfied"],
  ["COc1ccc(NS(=O)(=O)c2ccc(NS(C)(=O)=O)cc2)cc1", "Satisfied"],
  ["Cc1ccc(NC(=O)CC2SCCNC2=O)cc1Cl (centres undefined)", "Satisfied"],
  ["O=C(NC1CCCCC1)N1CCC(n2c(=O)[nH]c3ccccc32)CC1", "Satisfied"],
  ["C#CCSC1=C(C#N)C(c2cccs2)C(C(=O)OCC)=C(C)N1 (centres undefined)", "Not satisfied"],
  ["COc1cccc(-c2nnc3n2N=C(c2cccc(Br)c2)CS3)c1", "Satisfied"],
  ["CCC(CC)C(=O)Nc1cccc(C(=O)NCc2ccco2)c1", "Satisfied"],
  ["FC(F)(F)c1ccc(N2CCN(c3ncnc4c3nnn4Cc3ccccc3)CC2)nc1", "Not satisfied"],
  ["CN1CCN(C(=O)CSc2nc(-c3cccs3)ccc2C#N)CC1", "Satisfied"],
  ["CN(C)CC(=O)Nc1cc(C(F)(F)F)ccc1Cl", "Satisfied"],
  ["Cc1nc(NC(=O)CSc2ccccc2N)sc1C", "Satisfied"],
  ["CC(C)COc1ccc(C2NC(=O)NC2=O)cc1 (centres undefined)", "Satisfied"],
  ["Cc1ccc2nc(NCc3ccco3)c(C=NCc3ccco3)c(=O)n2c1", "Satisfied"],
  ["Nc1cc(N)nc(SCCOc2ccccc2F)n1", "Satisfied"],
  ["CCSC1=C(C#N)C(c2cccs2)C(C(=O)OC)=C(C)N1 (centres undefined)", "Satisfied"],
  ["O=C(COc1nncc2ccccc12)NCCC1=CCCCC1", "Satisfied"]
]}
